Biological target: human S1P3 receptor (Homo sapiens)
Construct: expressed in transfected cells
Sequence (Q99500 whole entry): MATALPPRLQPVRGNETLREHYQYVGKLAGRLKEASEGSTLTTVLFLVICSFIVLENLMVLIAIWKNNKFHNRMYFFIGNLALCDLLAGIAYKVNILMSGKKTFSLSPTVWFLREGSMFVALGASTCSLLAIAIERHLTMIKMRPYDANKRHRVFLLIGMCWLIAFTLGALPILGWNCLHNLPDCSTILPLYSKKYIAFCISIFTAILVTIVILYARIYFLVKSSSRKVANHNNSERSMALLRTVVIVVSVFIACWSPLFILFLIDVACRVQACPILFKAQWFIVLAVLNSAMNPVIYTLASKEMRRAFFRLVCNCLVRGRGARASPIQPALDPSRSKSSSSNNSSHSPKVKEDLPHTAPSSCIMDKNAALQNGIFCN
Assay: FLIPR calcium (Fluo-4) assay for activation or block of activation of human S1P3 receptor in T24 cells
Format: cell-based
Below is a list of entries, each paired with its recorded pIC50 value.
Interpret pIC50 as the negative base-10 log of the concentration measured in mol/L.

Past entries and their recorded results:
{"compound": "CCCSC(=O)Nc1cc2c3c(c1)[C@@](C)(c1ccccc1)CCN3CC[C@@]2(C)c1ccccc1 [Compound 584]", "testedOn": "human S1P3 receptor (Homo sapiens)", "experimentalValue": 7.80}
{"compound": "CCCCOC(=O)Nc1cc2c3c(c1)[C@](C)(c1ccccc1)CCN3CC[C@@]2(C)c1ccccc1 [Compound 943]", "testedOn": "human S1P3 receptor (Homo sapiens)", "experimentalValue": 7.12}
{"compound": "CSC(=O)Nc1cc2c3c(c1)[C@](C)(c1ccc(F)cc1)CCN3CC[C@@]2(C)c1ccc(F)cc1 [Compound 671]", "testedOn": "human S1P3 receptor (Homo sapiens)", "experimentalValue": 7.60}
{"compound": "C[C@@]1(c2ccccc2)CCN2CC[C@@](C)(c3ccccc3)c3cc(NC(=O)OCCCCl)cc1c32 [Compound 945]", "testedOn": "human S1P3 receptor (Homo sapiens)", "experimentalValue": 7.17}

Q: // returns reported pIC50 for input CC(C)(C)NC(=O)Nc1cc2c3c(c1)[C@@](C)(c1ccccc1)CCN3CC[C@@]2(C)c1ccccc1 [Compound 580]
Result: 7.21

Q: // returns reported pIC50 for input CCOC(=O)Nc1cc2c3c(c1)[C@](C)(c1ccccc1)CCN3CC[C@@]2(C)c1ccccc1 [Compound 941]
Result: 7.89

Q: // returns reported pIC50 for input COC(=O)Nc1cc2c3c(c1)[C@](C)(c1ccc(F)cc1)CCN3CC[C@@]2(C)c1ccc(F)cc1 [Compound 674]
Result: 7.34

Q: // returns reported pIC50 for input COC(=O)Nc1cc2c3c(c1)[C@](C)(c1ccccc1)CCN3CC[C@@]2(C)c1ccccc1 [Compound 829]
Result: 8.15
